# System: Phormia regina
# method description: Relative activity against blowfly flight muscle submitochondrial NADH dehydrogenase compared to rotenone
# condition details: Muscle tissue
readout name: Relative activity (%)

> print(dat)
                                   compound  measured
1  C=C(C)[C@H]1CC2=C(Cc3ccc4c(c3C2)O[C@@H]2COc3cc(OC)c(OC)cc3[C@@H]2C4=O)O1       100

P. COc1cc2c(cc1OC)[C@@H]1C(=O)c3ccc4c(c3O[C@@H]1CO2)Cc1cc(C(C)C)oc1C4
Q. O=C1c2ccccc2O[C@@H]2COc3ccccc3[C@H]12
From the recorded data, which exceeds the other in Relative activity: P or Q ? Select an item and report its label.
P
(P: 75%, Q: 0.005%)

====

# method description: Inhibition of NADH dehydrogenase in blowfly flight-muscle submitochondrial preparation
# Assay type: tissue-based, Muscle tissue
readout name: IC50 (nM)

Use the examples below as a reference point.
> print(dat)
                            chemical.string  unit.info  measured
1     O=C1c2ccccc2O[C@@H]2COc3ccccc3[C@H]12         nM      5000
2  COc1cc2c(cc1OC)[C@@H]1[C@H](O)c3ccc4c(c3O[C@@H]1CO2)Cc1cc(C(C)C)oc1C4         nM        25
3  COc1cc2c(cc1OC)[C@H]1[C@H](O)c3ccc4c(c3O[C@@H]1CO2)Cc1cc(C(C)C)oc1C4         nM       400

I. COc1cc2c(cc1OC)[C@@H]1C(=O)c3ccccc3O[C@@H]1CO2
II. COc1ccc2c(c1)O[C@@H]1COc3ccccc3[C@@H]1C2=O
III. COc1cc2c(cc1OC)[C@@H]1C(=O)c3ccc4c(c3O[C@@H]1CO2)Cc1cc(C(C)C)oc1C4
IV. C=C(C)[C@H]1CC2=C(Cc3ccc4c(c3C2)O[C@@H]2COc3cc(OC)c(OC)cc3[C@H]2C4=O)O1
V. COc1cc2c(cc1OC)[C@@H]1C(=O)c3ccccc3O[C@@H]1CS2
Please order the records by their reported IC50, lowest number first. Respond with an ordered listing of the labels, as requested.
IV, III, I, V, II
(IV: 0.5 nM, III: 2 nM, I: 200 nM, V: 300 nM, II: 8000 nM)

A. COc1cc2c(cc1OC)[C@H]1C(=O)c3ccc4c(c3O[C@@H]1CO2)Cc1cc(C(C)C)oc1C4
B. O=C1c2ccccc2O[C@@H]2CSc3ccccc3[C@H]12
From the recorded data, which exceeds the other in IC50: A or B ? Select an item and report its label.
B
(B: 10000 nM, A: 5 nM)

====

# method description: Inhibition of NADH dehydrogenase in blowfly flight-muscle submitochondrial preparation experiment II
# Design: species or system Phormia regina, Muscle tissue
readout name: IC50 (nM)
Write it as a number; the unit nM goes unstated.

// returns reported IC50 for input `C=C(C)[C@H]1CC2=C(Cc3ccc4c(c3C2)O[C@@H]2COc3cc(OC)c(OC)cc3[C@@H]2C4=O)O1`
1.5
